Reference source: ChEMBL document CHEMBL1156597

Reported TGI values for the following compounds.
# Test system: PANC-1
# assay remarks: Cytotoxicity against human PANC1 cells after 48 hrs by SRB assay
# Assay type: functional
# experimental setup: PANC-1, 48 h

smiles	TGI
C/C=C1\NC(=O)[C@H](Cc2ccccc2)NC(=O)[C@@H](C(C)C)NC(=O)[C@@H]([C@H](C)CC)NC(=O)[C@H](NC(=O)[C@H](NC(=O)[C@H](CCCN)NC(=O)[C@H]2CCCN2C(=O)[C@H](NC(=O)[C@@H](NC(=O)[C@@H]2CCCN2C(=O)[C@H](NC(=O)CCCC(C)C)C(C)C)C(C)C)C(C)C)[C@H](C)CC)[C@H](C)OC(=O)[C@H](C(C)C)NC1=O	4.52 µM
C/C=C1\NC(=O)[C@H](Cc2ccccc2)NC(=O)[C@@H](C(C)C)NC(=O)[C@@H]([C@H](C)CC)NC(=O)[C@H](NC(=O)[C@H](NC(=O)[C@H](CCCN)NC(=O)[C@H]2CCCN2C(=O)[C@H](NC(=O)[C@@H](NC(=O)[C@@H](NC(=O)[C@@H](CCC(=O)O)NC(=O)CCCC(C)C)[C@@H](C)O)C(C)C)C(C)C)[C@H](C)CC)[C@H](C)OC(=O)[C@H](C(C)C)NC1=O	4.88 µM

---

# Tested on: PANC-1
# assay remarks: Cytotoxicity against human PANC1 cells after 48 hrs by SRB assay
# Assay type: functional
# experimental setup: PANC-1, 48 h, read-out: LC50 (the source's name)
# CC50 per record follows

smiles	CC50 [nM]
C/C=C1\NC(=O)[C@H](Cc2ccccc2)NC(=O)[C@@H](C(C)C)NC(=O)[C@@H]([C@H](C)CC)NC(=O)[C@H](NC(=O)[C@H](NC(=O)[C@H](CCCNC(=O)c2cc(F)c(F)c(F)c2F)NC(=O)[C@H]2CCCN2C(=O)[C@H](NC(=O)[C@@H](NC(=O)[C@@H](NC(=O)[C@H](NC(=O)CCCC(C)C)C(C)C)[C@@H](C)O)C(C)C)C(C)C)[C@H](C)CC)[C@H](C)OC(=O)[C@H](C(C)C)NC1=O	1580
C/C=C1\NC(=O)[C@H](Cc2ccccc2)NC(=O)[C@@H](C(C)C)NC(=O)[C@@H]([C@H](C)CC)NC(=O)[C@H](NC(=O)[C@H](NC(=O)[C@H](CCCNC(=O)CCOCCOCCN)NC(=O)[C@H]2CCCN2C(=O)[C@H](NC(=O)[C@@H](NC(=O)[C@@H](NC(=O)[C@H](NC(=O)CCCC(C)C)C(C)C)[C@@H](C)O)C(C)C)C(C)C)[C@H](C)CC)[C@H](C)OC(=O)[C@H](C(C)C)NC1=O	1600

---

# System: LoVo
# assay remarks: Cytotoxicity against human doxorubicin resistant LoVo cells after 48 hrs by SRB assay
# Type: functional
TGI reference

compound	TGI [µM]
C/C=C1\NC(=O)[C@H](Cc2ccccc2)NC(=O)[C@@H](C(C)C)NC(=O)[C@@H]([C@H](C)CC)NC(=O)[C@H](NC(=O)[C@H](NC(=O)[C@H](CCCN)NC(=O)[C@H]2CCCN2C(=O)[C@H](NC(=O)[C@@H](NC(=O)[C@@H](NC(=O)[C@H](NC(=O)CCCCCCCCCC)C(C)C)[C@@H](C)O)C(C)C)C(C)C)[C@H](C)CC)[C@H](C)OC(=O)[C@H](C(C)C)NC1=O	0.189
C/C=C1\NC(=O)[C@H](Cc2ccccc2)NC(=O)[C@@H](C(C)C)NC(=O)[C@@H]([C@H](C)CC)NC(=O)[C@H](NC(=O)[C@H](NC(=O)[C@H](CCCN)NC(=O)[C@H]2CCCN2C(=O)[C@H](NC(=O)[C@@H](NC(=O)[C@H](CC(C)C)NC(=O)[C@H](NC(=O)CCCC(C)C)C(C)C)C(C)C)C(C)C)[C@H](C)CC)[C@H](C)OC(=O)[C@H](C(C)C)NC1=O	0.244
C/C=C1\NC(=O)[C@H](Cc2ccccc2)NC(=O)[C@@H](C(C)C)NC(=O)[C@@H]([C@H](C)CC)NC(=O)[C@H](NC(=O)[C@H](NC(=O)[C@H](CCCN)NC(=O)[C@H]2CCCN2C(=O)[C@H](NC(=O)[C@@H](NC(=O)[C@@H](NC(=O)[C@H](NC(=O)CCCC(C)C)C(C)C)[C@@H](C)O)C(C)C)C(C)C)[C@H](C)CC)[C@H](C)OC(=O)[C@H](C(C)C)NC1=O [KAHALALIDE F]	0.485

---

# Tested on: A549
# assay remarks: Cytotoxicity against human A549 cells after 48 hrs by SRB assay
# Assay type: functional, cell-based
# experimental setup: Homo sapiens, A549, 48 h
LC50: recorded values

smiles	LC50 [nM]
C/C=C1\NC(=O)[C@H](Cc2ccccc2)NC(=O)[C@@H](C(C)C)NC(=O)[C@@H]([C@H](C)CC)NC(=O)[C@H](NC(=O)[C@H](NC(=O)[C@H](CCCN)NC(=O)[C@H]2CCCN2C(=O)[C@H](NC(=O)[C@@H](NC(=O)[C@@H](NC(=O)[C@H](NC(=O)C(F)(F)C(F)(F)C(F)(F)C(F)(F)C(F)(F)C(F)(F)F)C(C)C)[C@@H](C)O)C(C)C)C(C)C)[C@H](C)CC)[C@H](C)OC(=O)[C@H](C(C)C)NC1=O	865
C/C=C1\NC(=O)[C@H](Cc2ccccc2)NC(=O)[C@@H](C(C)C)NC(=O)[C@@H]([C@H](C)CC)NC(=O)[C@H](NC(=O)[C@H](NC(=O)[C@H](CCCN)NC(=O)[C@H]2CCCN2C(=O)[C@H](NC(=O)[C@@H](NC(=O)[C@@H](NC(=O)[C@H](NC(=O)CCCCCCCCCCCCCCCCCCC)C(C)C)[C@@H](C)O)C(C)C)C(C)C)[C@H](C)CC)[C@H](C)OC(=O)[C@H](C(C)C)NC1=O	383

---

# System: HT-29
# assay remarks: Cytotoxicity against human HT29 cells after 48 hrs by SRB assay
# Assay type: functional, cell-based
# experimental setup: Homo sapiens, HT-29, 48 h

smiles	test target	GI50, nM
C/C=C1\NC(=O)[C@H](Cc2ccccc2)NC(=O)[C@@H](C(C)C)NC(=O)[C@@H]([C@H](C)CC)NC(=O)[C@H](NC(=O)[C@H](NC(=O)[C@H](CCCN)NC(=O)[C@H]2CCCN2C(=O)[C@H](NC(=O)[C@@H](NC(=O)[C@@H](NC(=O)[C@@H](CC2CCCCC2)NC(=O)CCCC(C)C)[C@@H](C)O)C(C)C)C(C)C)[C@H](C)CC)[C@H](C)OC(=O)[C@H](C(C)C)NC1=O	HT-29	2010
C/C=C1\NC(=O)[C@H](Cc2ccccc2)NC(=O)[C@@H](C(C)C)NC(=O)[C@@H]([C@H](C)CC)NC(=O)[C@H](NC(=O)[C@H](NC(=O)[C@H](CCCN)NC(=O)[C@H]2CCCN2C(=O)[C@H](NC(=O)[C@@H](NC(=O)[C@@H](NC(=O)[C@H](NC(=O)CCCCCCCCCC)C(C)C)[C@@H](C)O)C(C)C)C(C)C)[C@H](C)CC)[C@H](C)OC(=O)[C@H](C(C)C)NC1=O	HT-29	371

---

# assay remarks: Cytotoxicity against human IGROV-ET cells after 48 hrs by SRB assay
# Assay type: functional
# experimental setup: read-out: LC50 (the source's name)

compound	CC50 [nM]
C/C=C1\NC(=O)[C@H](Cc2ccccc2)NC(=O)[C@@H](C(C)C)NC(=O)[C@@H]([C@H](C)CC)NC(=O)[C@H](NC(=O)[C@H](NC(=O)[C@H](CCCN)NC(=O)[C@H]2CCCN2C(=O)[C@H](NC(=O)[C@@H](NC(=O)[C@@H](NC(=O)[C@H](NC(=O)CCCC(C)C)C(C)C)[C@@H](C)O)C(C)C)C(C)C)[C@H](C)CC)[C@H](C)OC(=O)[C@H](C(C)C)NC1=O [KAHALALIDE F]	3280
C/C=C1\NC(=O)[C@H](Cc2ccccc2)NC(=O)[C@@H](C(C)C)NC(=O)[C@@H]([C@H](C)CC)NC(=O)[C@H](NC(=O)[C@H](NC(=O)[C@H](CCCN)NC(=O)[C@H]2CCCN2C(=O)[C@H](NC(=O)[C@@H](NC(=O)[C@H](CCC(=O)O)NC(=O)[C@H](NC(=O)CCCC(C)C)C(C)C)C(C)C)C(C)C)[C@H](C)CC)[C@H](C)OC(=O)[C@H](C(C)C)NC1=O	639
C/C=C1\NC(=O)[C@H](Cc2ccccc2)NC(=O)[C@@H](C(C)C)NC(=O)[C@@H]([C@H](C)CC)NC(=O)[C@H](NC(=O)[C@H](NC(=O)[C@H](CCCN)NC(=O)[C@H]2CCCN2C(=O)[C@H](NC(=O)[C@@H](NC(=O)[C@@H](NC(=O)[C@H](NC(=O)CCCC(C)C)C(C)C)C(C)C)C(C)C)C(C)C)[C@H](C)CC)[C@H](C)OC(=O)[C@H](C(C)C)NC1=O	64.8
C/C=C1\NC(=O)[C@H](Cc2ccccc2)NC(=O)[C@@H](C(C)C)NC(=O)[C@@H]([C@H](C)CC)NC(=O)[C@H](NC(=O)[C@H](NC(=O)[C@H](CCCN)NC(=O)[C@H]2CCCN2C(=O)[C@H](NC(=O)CCCC(C)C)C(C)C)[C@H](C)CC)[C@H](C)OC(=O)[C@H](C(C)C)NC1=O	6210
C/C=C1\NC(=O)[C@H](Cc2ccccc2)NC(=O)[C@@H](C(C)C)NC(=O)[C@@H]([C@H](C)CC)NC(=O)[C@H](NC(=O)[C@H](NC(=O)[C@H](CCCN)NC(=O)[C@H]2CCCN2C(=O)[C@H](NC(=O)[C@H](CC(C)C)NC(=O)[C@@H](NC(=O)[C@H](NC(=O)CCCC(C)C)C(C)C)[C@@H](C)O)C(C)C)[C@H](C)CC)[C@H](C)OC(=O)[C@H](C(C)C)NC1=O	383
C/C=C1\NC(=O)[C@H](Cc2ccc(-c3ccccc3)cc2)NC(=O)[C@@H](C(C)C)NC(=O)[C@@H]([C@H](C)CC)NC(=O)[C@H](NC(=O)[C@H](NC(=O)[C@H](CCCN)NC(=O)[C@H]2CCCN2C(=O)[C@H](NC(=O)[C@@H](NC(=O)[C@@H](NC(=O)[C@H](NC(=O)CCCC(C)C)C(C)C)[C@@H](C)O)C(C)C)C(C)C)[C@H](C)CC)[C@H](C)OC(=O)[C@H](C(C)C)NC1=O	536
C/C=C1\NC(=O)[C@H](Cc2ccccc2)NC(=O)[C@@H](C(C)C)NC(=O)[C@@H]([C@H](C)CC)NC(=O)[C@H](NC(=O)[C@H](NC(=O)[C@H](CCCCN)NC(=O)[C@H]2CCCN2C(=O)[C@H](NC(=O)[C@@H](NC(=O)[C@@H](NC(=O)[C@H](NC(=O)CCCC(C)C)C(C)C)[C@@H](C)O)C(C)C)C(C)C)[C@H](C)CC)[C@H](C)OC(=O)[C@H](C(C)C)NC1=O	587
C/C=C1\NC(=O)[C@H](Cc2ccccc2)NC(=O)[C@@H](C(C)C)NC(=O)[C@@H]([C@H](C)CC)NC(=O)[C@H](NC(=O)[C@H](NC(=O)[C@H](CCCN)NC(=O)[C@H]2CCCN2C(=O)[C@H](NC(=O)[C@@H](NC(=O)[C@H](CCC(N)=O)NC(=O)[C@H](NC(=O)CCCC(C)C)C(C)C)C(C)C)C(C)C)[C@H](C)CC)[C@H](C)OC(=O)[C@H](C(C)C)NC1=O	561
C/C=C1\NC(=O)[C@H](Cc2ccc(I)cc2)NC(=O)[C@@H](C(C)C)NC(=O)[C@@H]([C@H](C)CC)NC(=O)[C@H](NC(=O)[C@H](NC(=O)[C@H](CCCN)NC(=O)[C@H]2CCCN2C(=O)[C@H](NC(=O)[C@@H](NC(=O)[C@@H](NC(=O)[C@H](NC(=O)CC[C@@H](C)CC)C(C)C)[C@@H](C)O)C(C)C)C(C)C)[C@H](C)CC)[C@H](C)OC(=O)[C@H](C(C)C)NC1=O	776
CC[C@@H]1NC(=O)[C@H](Cc2ccccc2)NC(=O)[C@@H](C(C)C)NC(=O)[C@@H]([C@H](C)CC)NC(=O)[C@H](NC(=O)[C@H](NC(=O)[C@H](CCCN)NC(=O)[C@H]2CCCN2C(=O)[C@H](NC(=O)[C@@H](NC(=O)[C@@H](NC(=O)[C@H](NC(=O)CCCC(C)C)C(C)C)[C@@H](C)O)C(C)C)C(C)C)[C@H](C)CC)[C@H](C)OC(=O)[C@H](C(C)C)NC1=O	1170
